These measurements were taken from ChEMBL document CHEMBL3885861.

Species: Rattus norvegicus
assayProcedure: Open TG-GATES - Regimen: Daily Repeat
Format: toxicity, organism-based, Sprague-Dawley
Set-up: regimen Daily Repeat, gender Male, age 6 weeks
particulars: in vivo, po, 0 mg/kg, […], tissue Plasma, route gavage, dose level Control, time 14 day
propertyName: RALB (g/dL)
Please reply with the bare figure in g/dL and do not write the unit itself.

Specify RALB for O=[N+]([O-])c1ccc(O)c([N+](=O)[O-])c1 and stop. 4

Specify RALB for Cc1cccc(C)c1OCC(C)N (centres undefined) and stop. 3

Specify RALB for OCCN1CCN(CCCN2c3ccccc3Sc3ccc(C(F)(F)F)cc32)CC1 and stop. 4.2

Specify RALB for C[C@H]1C(=O)O[C@@H]2CCN3CC=C(COC(=O)[C@](C)(O)[C@]1(C)O)[C@H]23 and stop. 3.2

Specify RALB for O=C1CN(/N=C/c2ccc([N+](=O)[O-])o2)C(=O)N1 and stop. 3.4

Specify RALB for Cn1cc[nH]c1=S and stop. 3

Specify RALB for C[C@H]1O[C@H](O[C@H]2[C@H](O)[C@@H](O)[C@@H](O[C@H]3[C@H](O)[C@@H](O)C(O)O[C@@H]3CO)O[C@@H]2CO)[C@H](O)[C@@H](O)[C@@H]1N[C@H]1C=C(CO)[C@@H](O)[C@H](O)[C@H]1O (some centres undefined) and stop. 2.7

Specify RALB for C=C(C)[C@H]1Cc2c(ccc3c2O[C@@H]2COc4cc(OC)c(OC)cc4[C@@H]2C3=O)O1 and stop. 4

Specify RALB for CCOC(=O)C(C)(C)Oc1ccc(Cl)cc1 [CLOFIBRATE] and stop. 3.4
